Test system: response to skin puncture
Assay Name: Anaesthesia by infiltration (subcutaneous, back puncture)
Assay type: in vivo, guinea pigs
Stated Conditions: analogous to therapeutic index; DL50 i.p.
Measurement Label: Infiltration anaesthesia DL50/CE50
Write no unit; give the number alone.

Input line: What measured Infiltration anaesthesia DL50/CE50 goes with Cc1cccc(C)c1NC(=O)c1ccc(CN2CCOCC2)cc1 ?
Output line: 102

Input line: What do you get for CCN(CC)Cc1ccccc1C(=O)Nc1c(C)cccc1C(=O)OC ?
Output line: 57

Input line: Lookup Cc1cccc(C)c1NC(=O)c1cccc(CN2CCCCC2)c1
Output line: 569

Input line: What do we get for Cc1cccc(C)c1NC(=O)c1cccc(CN2CCCC2)c1 ?
Output line: 28

Input line: Try this compound too: CCN(CC)Cc1cccc(C(=O)Nc2c(C)cccc2C)c1
Output line: 291
